# Test system: U2OS
# Assay Overview: Incucyte cell viability with U2OS; also: unitless GR value; below 1 slowed growth and below 0 cell loss
# Format: toxicity, cell-based
# Run Conditions: human, 6 h, 10 µM, compound concentration 10 uM, replicate number 1, timepoint 6 hours
Measurement Label: Growth Rate
Numbers only.

Compound: CCCN(CCC)CCc1cccc2c1CC(=O)N2.Cl [ROPINIROLE HYDROCHLORIDE]
Recorded Measurement: 0.57
//
Compound: NC(=O)c1ccc(CNC(=O)NC[C@H]2CN(Cc3ccc(Cl)c(Cl)c3)CCO2)cc1
Recorded Measurement: 0.32
//
Compound: COc1cc2nc(N3CCN(C(=O)c4ccco4)CC3)nc(N)c2cc1OC.Cl [PRAZOSIN HYDROCHLORIDE]
Recorded Measurement: 0.78
//
Compound: CCCCCCCCCCCCC/C=C/[C@@H](O)[C@@H](N)COP(=O)([O-])OCC[N+](C)(C)C
Recorded Measurement: 0.97
//
Compound: Cc1ccccc1N1CCN(S(=O)(=O)C[C@]23CC[C@H](C[C@@H]2NC(=O)[C@@H](N)CCS(C)(=O)=O)C3(C)C)CC1.Cl
Recorded Measurement: 0.91

Batch request: Growth Rate per item, same order as input.
1. COc1cc(Nc2nc(C)cc(-c3cnn4nc(OC)ccc34)n2)cc(C(F)(F)F)c1
2. NCCc1c[nH]c2ccc(C(N)=O)cc12.O=C(O)/C=C\C(=O)O
3. O=C(O)c1nc2ccccc2c2[nH]c3c(I)cccc3c12

a:
0.24
0.87
0.56

###

# Test system: Fibroblast
# Assay Overview: Incucyte cell viability with human fibroblast; also: unitless GR value; below 1 slowed growth and below 0 cell loss
# Assay type: toxicity, cell-based
# Run Conditions: 24 h, 10 µM, compound concentration 10 uM, replicate number 1, timepoint 24 hours
Measurement Label: Growth Rate

Some molecules with known Growth Rate results, for comparison:
Molecule: Cc1cc(Cn2cnc3c2C[C@@H](C(=O)O)N(C(=O)C(c2ccccc2)c2ccccc2)C3)ccc1N(C)C
Recorded Measurement: 0.39
//
Molecule: COc1ccc(NC(=O)c2ccc(-c3ccc(-c4noc(C)n4)cc3C)cc2)cc1OCCN(C)C.Cl
Recorded Measurement: -0.57

Batch request: Growth Rate per item, same order as input.
1. CC(C)NCC(O)COc1cccc2[nH]ccc12 (centres undefined)
2. O=C(NCCN1CCC(n2c(=O)[nH]c3cc(Cl)ccc32)CC1)c1ccc(F)cc1 [HALOPEMIDE]
3. COc1ccccc1N1CCN(CCCCNC(=O)c2ccc3ccccc3c2)CC1.Cl

a:
1: 0.9; 2: -0.39; 3: -0.24

###

# System: HEK-293T
# Assay Overview: Incucyte cell viability with HEK293T; also: unitless GR value; below 1 slowed growth and below 0 cell loss
# Type: toxicity, cell-based
# Run Conditions: human, 18 h, 10 µM, compound concentration 10 uM, replicate number 1, timepoint 18 hours
Measurement Label: Growth Rate
Numbers only.

Compound: Cc1cccc(S(=O)(=O)N(C)[C@H](C)CCN2CCC(C)CC2)c1.Cl
Measurement Label: Growth Rate
Recorded Measurement: 0.84
--
Compound: C[S+](C)[O-] [DIMETHYL SULFOXIDE]
Measurement Label: Growth Rate
Recorded Measurement: 0.93
--
Compound: CCCCC[C@H](O)/C=C/[C@H]1CCC(=O)[C@@H]1CCCCCCC(=O)O
Measurement Label: Growth Rate
Recorded Measurement: 0.7
--
Compound: CCN1/C(=C/C(C)=O)Sc2ccc(OC(C)=O)cc21
Measurement Label: Growth Rate
Recorded Measurement: 0.49
--
Compound: O=c1ccc2ccc(OCCCCN3CCN(c4cccc5sccc45)CC3)cc2[nH]1
Measurement Label: Growth Rate
Recorded Measurement: -0.32

Batch request: Growth Rate per item, same order as input.
1. Cl.N=C(N)NC(=O)Cc1c(Cl)cccc1Cl [GUANFACINE HYDROCHLORIDE]
2. N#Cc1c(N)nc(SCc2csc(-c3ccc(Cl)cc3)n2)c(C#N)c1-c1ccc(OCCO)cc1
3. CCNC(=O)[C@H]1O[C@@H](n2cnc3c(N)ncnc32)[C@H](O)[C@@H]1O.O
4. CC(C)C[C@H](CO)Nc1nc(S[C@@H](C)c2ccccc2)nc2nc(N)sc12
5. C(#Cc1cccc(CN2CCOCC2)c1)CCN1CCCCC1

a:
1: 0.76; 2: 0.36; 3: 0.8; 4: 0.82; 5: 0.78
